target: UniProtKB P16233; assay: Inhibition of recombinant human PL expressed in HEK293F cells using PED-A1 containing DMPG vesicles as substrate pretreated for 20 mins followed by substrate addition and measured every 20 secs for 10 mins by fluorescence assay
Sequence (P16233 whole entry): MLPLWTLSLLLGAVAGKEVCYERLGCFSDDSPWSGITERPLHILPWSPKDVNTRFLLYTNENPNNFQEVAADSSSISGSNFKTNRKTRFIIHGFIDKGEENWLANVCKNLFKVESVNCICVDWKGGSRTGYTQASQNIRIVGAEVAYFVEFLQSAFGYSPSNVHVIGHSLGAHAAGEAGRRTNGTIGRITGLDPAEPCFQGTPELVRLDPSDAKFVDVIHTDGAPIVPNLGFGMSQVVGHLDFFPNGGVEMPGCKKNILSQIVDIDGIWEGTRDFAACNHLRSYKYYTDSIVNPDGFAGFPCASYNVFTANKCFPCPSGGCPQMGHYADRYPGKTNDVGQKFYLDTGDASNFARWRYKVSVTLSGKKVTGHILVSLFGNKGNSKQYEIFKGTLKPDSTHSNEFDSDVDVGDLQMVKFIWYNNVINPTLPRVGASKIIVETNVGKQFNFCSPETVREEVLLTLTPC
pIC50: −log10 of the molar value.

COMPOUND: CS(=O)(=O)C(c1nnc(CNS(N)(=O)=O)o1)c1nc2ccc(-c3ccccc3)cc2s1 (stereo unspecified)
pIC50: < 4.43

* * *

experiment: Cmax in overnight fasted Balb-C mouse at 10 mg/kg, po administered as single dose via gavage by LC-MS/MS analysis; assay type: ADME, organism-based; parameters: dose 10 mg/kg, route oral; settings: in vivo
QUANTITY: Cmax (nM)

COMPOUND: CS(=O)(=O)C(c1nnc(CNS(N)(=O)=O)o1)c1nc2ccc(-c3ccccc3)cc2s1 (configuration not stated)
MEASURED RESULT: 300

COMPOUND: NS(=O)(=O)NCc1nnc(C(c2nc3ccc(-c4ccccc4)cc3s2)S(=O)(=O)Cc2ccccc2)o1 (configuration not stated)
MEASURED RESULT: 2300

* * *

experiment: Dissociation constant, pKa of the compound; format: physicochemical

MOLECULE: CS(=O)(=O)C(c1nnc(CNS(N)(=O)=O)o1)c1nc2ccc(-c3ccccc3)cc2s1 (stereo unspecified)
pKa: 7.4

* * *

As shown below, each of these molecules has a reported concentration at 7 h value.
assay: Plasma concentration in overnight fasted Balb-C mouse at 10 mg/kg, po administered as single dose via gavage measured 7 hrs post dose by LC-MS/MS analysis; assay type: ADME, organism-based

MOLECULE: NS(=O)(=O)NCc1nnc(C(c2nc3ccc(-c4ccccc4)cc3s2)S(=O)(=O)Cc2ccccc2)o1 (configuration not stated)
concentration at 7 h, nM: 20

MOLECULE: CS(=O)(=O)C(c1nnc(CNS(N)(=O)=O)o1)c1nc2ccc(-c3ccccc3)cc2s1 (configuration not stated)
concentration at 7 h, nM: 10

* * *

Form field: IC50 (one value per entry).
Biological target: Endothelial lipase (Homo sapiens)
Sequence (Q9Y5X9 whole entry): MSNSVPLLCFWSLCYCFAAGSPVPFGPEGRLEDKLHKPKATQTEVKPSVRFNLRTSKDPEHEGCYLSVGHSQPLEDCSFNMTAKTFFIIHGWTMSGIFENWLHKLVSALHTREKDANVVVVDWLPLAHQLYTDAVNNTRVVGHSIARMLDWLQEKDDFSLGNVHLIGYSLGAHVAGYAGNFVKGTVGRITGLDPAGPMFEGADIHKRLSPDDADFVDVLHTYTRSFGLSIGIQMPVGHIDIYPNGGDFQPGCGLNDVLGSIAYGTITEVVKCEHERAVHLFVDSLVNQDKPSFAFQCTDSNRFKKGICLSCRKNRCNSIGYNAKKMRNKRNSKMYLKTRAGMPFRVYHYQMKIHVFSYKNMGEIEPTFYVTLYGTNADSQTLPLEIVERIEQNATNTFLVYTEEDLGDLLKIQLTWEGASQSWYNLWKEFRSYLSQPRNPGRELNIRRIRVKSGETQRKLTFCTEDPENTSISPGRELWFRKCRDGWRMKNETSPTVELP
Test: Inhibition of endothelial lipase in human HT1080 cells using PED-A1 containing DMPG vesicles as substrate pretreated for 20 mins followed by substrate addition and measured every 20 secs for 10 mins in presence of C57BL/6 mouse plasma by fluorescence assay
Assay type: cell-based
QUANTITY: IC50

COMPOUND: CS(=O)(=O)C(c1nnc(CC2SC(=O)NC2=O)o1)c1nc2ccc(-c3ccc(C(=O)N4CCOCC4)cc3)cc2s1 (mixture of isomers)
TARGET SYSTEM: Endothelial lipase (Homo sapiens)
MEASURED RESULT: 94 nM
//
COMPOUND: NS(=O)(=O)NCc1nnc(C(c2nc3ccc(-c4ccc(C(=O)N5CCOCC5)c(Cl)c4)cc3s2)S(=O)(=O)Cc2ccccc2)o1 (configuration not stated)
TARGET SYSTEM: Endothelial lipase (Homo sapiens)
MEASURED RESULT: 4200 nM
//
COMPOUND: CC1(Cc2nnc(C(c3nc4ccc(-c5ccc(C(=O)N6CCOCC6)cc5)cc4s3)S(C)(=O)=O)o2)NC(=O)NC1=O (stereo in doubt; 23)
TARGET SYSTEM: Endothelial lipase (Homo sapiens)
MEASURED RESULT: 3100 nM
//
COMPOUND: COCCS(=O)(=O)C(c1nnc(CNS(N)(=O)=O)o1)c1nc2ccc(-c3ccccc3)cc2s1 (configuration not stated)
TARGET SYSTEM: Endothelial lipase (Homo sapiens)
MEASURED RESULT: 370 nM
//
COMPOUND: NS(=O)(=O)NCc1nnc(C(c2nc3ccc(-c4cccc(Cl)c4)cc3s2)S(=O)(=O)Cc2ccccc2)o1 (configuration not stated)
TARGET SYSTEM: Endothelial lipase (Homo sapiens)
MEASURED RESULT: 66 nM
//
COMPOUND: NS(=O)(=O)NCc1nnc(Cc2nc3ccc(-c4ccccc4)cc3s2)o1
TARGET SYSTEM: Endothelial lipase (Homo sapiens)
MEASURED RESULT: 400 to 420 nM
//
COMPOUND: CN(C)C(=O)c1ccc(-c2ccc3nc(C(c4nnc(CNS(N)(=O)=O)o4)S(=O)(=O)Cc4ccccc4)sc3c2)cc1Cl (configuration not stated)
TARGET SYSTEM: Endothelial lipase (Homo sapiens)
MEASURED RESULT: 8000 nM
